Values of pKi reported for Acetolactate synthase, chloroplastic (Arabidopsis thaliana, UniProt P17597, W574L) appear below.
Please express pKi as -log10 of the molar concentration.

Cc1nc(SSc2ccccc2[N+](=O)[O-])n[nH]1: 4.57

Lab entry: Acetolactate synthase, chloroplastic (Arabidopsis thaliana, UniProt P17597, W574L) assay, compound COC(=O)c1ccccc1S(=O)(=O)NC(=O)Nc1nccc(C)n1 [MONOSULFURON ESTER] , pKi = 5.07

Lab entry: Acetolactate synthase, chloroplastic (Arabidopsis thaliana, UniProt P17597, W574L) assay, compound "Cc1ccc(SSc2nc[nH]n2)cc1" , pKi = 4.59

Lab entry: Acetolactate synthase, chloroplastic (Arabidopsis thaliana, UniProt P17597, W574L) assay, compound CC(C)C1(C)N=C(c2nc3ccccc3cc2C(=O)O)NC1=O (centres undefined) [IMAZAQUIN] , pKi = 3.33

Data provenance: ChEMBL document CHEMBL3045482
